# Tested on: A498 renal
# measurement-description: NCI-60 one-dose screen, 48 h
# test-context: 10 µM unless noted
Compounds without any hit were thinned out: in the full panel of roughly 83,000, 20% have a hit. Calls of active or inactive are those of the source. The calls were made as follows: active = growth percent below 10; inactive = the rest.
Just give me one of these, please: active, inactive

Worked cases, answers included:
# compound, class-label
data = [
    ("COc1ccc(C2C3=C(COC3=O)N(CCO)c3cc4c(cc32)OCCO4)cc1OC (configuration not stated)", "active"),
    ("N#Cc1c(NC(=O)c2cccs2)[n+]([O-])c2ccc(Cl)cc2[n+]1[O-]", "inactive"),
    ("O=C1Nc2ccccc2C2c3cccn3-c3ccccc3N12 (configuration not stated)", "inactive"),
    ("C/C(=C(\\c1ccc(OCCN2CCCCCC2)cc1)c1ccc(OC(=O)Cc2ccccc2)cc1)c1ccc(Cl)cc1", "inactive"),
    ("COc1ccc(Cl)cc1Nc1nc(C(F)(F)F)ccc1C(=O)N/N=C/c1ccccc1Cl", "inactive"),
]

Which outcome did this test record for the compound "S=c1ssnc1-c1cccs1" ?
inactive

Which outcome did this test record for the compound "C(/C=C/c1ccccc1)=Nc1ccc(CCc2ccc(N=C/C=C/c3ccccc3)cc2)cc1" ?
inactive

Which outcome did this test record for the compound COc1ccc(C(O)c2cc3c(N)c(C(=O)Nc4cccc(Cl)c4)sc3nc2C)cc1 (configuration not stated) ?
active

Which outcome did this test record for the compound COc1cccc(NC(=O)c2cccc(C3CCc4c(cc(OC)c(OC)c4OC)O3)c2)c1 (configuration not stated) ?
inactive

Which outcome did this test record for the compound "CCCCc1oc2ccccc2c1C(=O)c1ccc(O)cc1" ?
inactive

Which outcome did this test record for the compound "CCOC(=O)c1c2c(n3ccccc13)C(=O)c1ncccc1C2=O" ?
inactive

Which outcome did this test record for the compound "CC/C=C\C/C=C/C=C1/C(=O)C=C[C@@H]1C/C=C\CCCC(=O)OC" ?
inactive

Which outcome did this test record for the compound "COC(=O)Cc1nc(C#N)c(N(C)C)o1" ?
inactive
